// provenance: paper PMC9871955

# ASSAYED TARGET: SARS-CoV-2 PL^pro (Severe acute respiratory syndrome coronavirus 2, UniProt P0DTD1)
# ASSAY TEXT: SARS-CoV-2 PL^pro enzymatic inhibition assay (substrate Z-RLRGG-AMC)
# Type: biochemical
# DETAILS: Table S6; S/KM = 1/4; read-out: IC50 (μM) at S/KM 1/4
Measured IC50 values are reported for all entries that follow.
MEASUREMENT LABEL: IC50 (µM)

{"COMPOUND": "CCOc1cc(C(=O)NCc2n[nH]c(=S)n2-c2ccc(Br)cc2)cc(OCC)c1OCC", "MEASUREMENT UNIT": "µM", "MEASURED VALUE": 2.4}
{"COMPOUND": "O=C(NCc1n[nH]c(=S)n1-c1ccc(Br)cc1)c1ccc(Cl)cc1Cl", "MEASUREMENT UNIT": "µM", "MEASURED VALUE": 100}
{"COMPOUND": "CCC(C(=O)NCc1ccco1)n1c(Cc2c(Cl)cccc2Cl)nc2ccccc21 (stereo not drawn)", "MEASUREMENT UNIT": "µM", "MEASURED VALUE": 7.6}

----------
Measured IC50 values are reported for all entries that follow.
# ASSAYED TARGET: SARS-CoV-2 PL^pro (Severe acute respiratory syndrome coronavirus 2)
# ASSAY TEXT: SARS-CoV-2 PL^pro enzymatic inhibition assay (substrate Z-RLRGG-AMC)
# Type: biochemical
# DETAILS: read-out: IC50 (μM) at S/KM 1/4

{"MOLECULE": "COc1ccc(-n2c(CNC(=O)COc3ccc(Cl)cc3Cl)n[nH]c2=S)cc1", "MEASUREMENT UNIT": "µM", "IC50": 7.9}
{"MOLECULE": "COc1ccc(-n2c(S)nnc2CNC(=O)c2cc(OC)c(OC)c(OC)c2)cc1", "MEASUREMENT UNIT": "µM", "IC50": 5.9}
{"MOLECULE": "CC(C(=O)NCc1ccco1)n1c(Cc2c(Cl)cccc2Cl)nc2ccccc21 (stereo not drawn)", "MEASUREMENT UNIT": "µM", "IC50": 1.5}

----------
# ASSAYED TARGET: SARS-CoV-2 PL^pro (Severe acute respiratory syndrome coronavirus 2, UniProt P0DTD1)
# ASSAY TEXT: SARS-CoV-2 PL^pro enzymatic inhibition assay (substrate Z-RLRGG-AMC)
# Assay type: biochemical
# DETAILS: Table S2, PL^pro inhibitors; 40 nmol/L enzyme, 50 µmol/L substrate; read-out: IC50
pIC50: −log10 of the molar value.
Output Yes for pIC50 not less than 5; output No otherwise.

{"COMPOUND": "COc1ccc(-n2c(CNC(=O)COc3ccc(Cl)cc3Cl)n[nH]c2=S)cc1", "LABEL VALUE": "Yes"}
{"COMPOUND": "COc1ccc(-n2c(S)nnc2CNC(=O)c2cc(OC)c(OC)c(OC)c2)cc1", "LABEL VALUE": "No"}
{"COMPOUND": "O=C(NCc1n[nH]c(=S)n1-c1ccc(Br)cc1)c1ccc(Cl)cc1Cl", "LABEL VALUE": "No"}
{"COMPOUND": "CCOc1cc(C(=O)NCc2n[nH]c(=S)n2-c2ccc(Br)cc2)cc(OCC)c1OCC", "LABEL VALUE": "No"}
{"COMPOUND": "CC(C(=O)NCc1ccco1)n1c(Cc2c(Cl)cccc2Cl)nc2ccccc21 (stereo not drawn)", "LABEL VALUE": "Yes"}

----------
# ASSAYED TARGET: UniProtKB P0DTD1
# ASSAY TEXT: SARS-CoV-2 PL^pro enzymatic inhibition assay (substrate Z-RLRGG-AMC)
# Assay type: biochemical
# DETAILS: Table S6; S/KM = 2; read-out: IC50 (μM) at S/KM 2

{"MOLECULE": "CC(C(=O)NCc1ccco1)n1c(Cc2c(Cl)cccc2Cl)nc2ccccc21 (stereo not drawn)", "ASSAYED TARGET": "UniProtKB P0DTD1", "MEASUREMENT UNIT": "µM", "IC50": 2.4}
{"MOLECULE": "O=c1sc2ccccc2n1Cc1n[nH]c(=S)n1-c1ccccc1", "ASSAYED TARGET": "UniProtKB P0DTD1", "MEASUREMENT UNIT": "µM", "IC50": 105}
{"MOLECULE": "CCOc1cc(C(=O)NCc2n[nH]c(=S)n2-c2ccc(Br)cc2)cc(OCC)c1OCC", "ASSAYED TARGET": "UniProtKB P0DTD1", "MEASUREMENT UNIT": "µM", "IC50": 8.5}

----------
Measured IC50 values are reported for all entries that follow.
# ASSAYED TARGET: SARS-CoV-2 PL^pro (Severe acute respiratory syndrome coronavirus 2, UniProt P0DTD1)
# ASSAY TEXT: SARS-CoV-2 PL^pro enzymatic inhibition assay (substrate Z-RLRGG-AMC)
# Type: biochemical
# DETAILS: read-out: IC50 (μM) at S/KM 1/2

{"COMPOUND": "O=c1sc2ccccc2n1Cc1n[nH]c(=S)n1-c1ccccc1", "MEASUREMENT UNIT": "µM", "IC50": 30.3}
{"COMPOUND": "CCOc1cc(C(=O)NCc2n[nH]c(=S)n2-c2ccc(Br)cc2)cc(OCC)c1OCC", "MEASUREMENT UNIT": "µM", "IC50": 2.6}
{"COMPOUND": "COc1ccc(-n2c(S)nnc2CNC(=O)c2cc(OC)c(OC)c(OC)c2)cc1", "MEASUREMENT UNIT": "µM", "IC50": 7.1}
{"COMPOUND": "O=C(COc1ccc(Cl)cc1)NCc1n[nH]c(=S)n1-c1ccc(Br)cc1", "MEASUREMENT UNIT": "µM", "IC50": 21.9}
{"COMPOUND": "O=C(NCc1n[nH]c(=S)n1-c1ccc(Br)cc1)c1ccc(Cl)cc1Cl", "MEASUREMENT UNIT": "µM", "IC50": 94.6}
{"COMPOUND": "COc1ccc(-n2c(CNC(=O)COc3ccc(Cl)cc3Cl)n[nH]c2=S)cc1", "MEASUREMENT UNIT": "µM", "IC50": 7.4}
{"COMPOUND": "CC(C(=O)NCc1ccco1)n1c(Cc2c(Cl)cccc2Cl)nc2ccccc21 (stereo not shown)", "MEASUREMENT UNIT": "µM", "IC50": 1.5}

----------
# ASSAYED TARGET: SARS-CoV-2 PL^pro (Severe acute respiratory syndrome coronavirus 2, UniProt P0DTD1)
# ASSAY TEXT: SARS-CoV-2 PL^pro enzymatic inhibition assay (substrate Z-RLRGG-AMC)
# Format: biochemical
# DETAILS: Table S6; S/KM = 1; read-out: IC50 (μM) at S/KM 1
MEASUREMENT LABEL: IC50 (µM)

{"SMILES NOTATION": "O=C(NCc1n[nH]c(=S)n1-c1ccc(Br)cc1)c1ccc(Cl)cc1Cl", "MEASUREMENT UNIT": "µM", "MEASURED VALUE": 102}

----------
# ASSAYED TARGET: SARS-CoV-2 PL^pro (Severe acute respiratory syndrome coronavirus 2, UniProt P0DTD1)
# ASSAY TEXT: SARS-CoV-2 PL^pro enzymatic inhibition assay (substrate Z-RLRGG-AMC)
# Type: biochemical
# DETAILS: read-out: IC50 (μM) at S/KM 1
Rule: measured IC50 below 9 µM gets Condition met; anything equal to or greater than 9 µM gets Condition not met.

{"MOLECULE": "O=C(COc1ccc(Cl)cc1)NCc1n[nH]c(=S)n1-c1ccc(Br)cc1", "LABEL VALUE": "Condition not met"}
{"MOLECULE": "COc1ccc(-n2c(S)nnc2CNC(=O)c2cc(OC)c(OC)c(OC)c2)cc1", "LABEL VALUE": "Condition not met"}
{"MOLECULE": "COc1ccc(-n2c(CNC(=O)COc3ccc(Cl)cc3Cl)n[nH]c2=S)cc1", "LABEL VALUE": "Condition met"}
{"MOLECULE": "O=c1sc2ccccc2n1Cc1n[nH]c(=S)n1-c1ccccc1", "LABEL VALUE": "Condition not met"}
{"MOLECULE": "CC(C(=O)NCc1ccco1)n1c(Cc2c(Cl)cccc2Cl)nc2ccccc21 (stereo not drawn)", "LABEL VALUE": "Condition met"}
{"MOLECULE": "CCOc1cc(C(=O)NCc2n[nH]c(=S)n2-c2ccc(Br)cc2)cc(OCC)c1OCC", "LABEL VALUE": "Condition met"}

----------
# ASSAYED TARGET: SARS-CoV-2 PL^pro (Severe acute respiratory syndrome coronavirus 2)
# ASSAY TEXT: SARS-CoV-2 PL^pro enzymatic inhibition assay (substrate Z-RLRGG-AMC)
# Assay type: biochemical
# DETAILS: Table S3, representative dual inhibitors; read-out: IC50 for PL^pro
Measured IC50 values are reported for all entries that follow.

{"SMILES NOTATION": "COc1ccc(-n2c(S)nnc2CNC(=O)c2cc(OC)c(OC)c(OC)c2)cc1", "MEASUREMENT UNIT": "µM", "IC50": 21.2}
{"SMILES NOTATION": "CCOc1cc(C(=O)NCc2n[nH]c(=S)n2-c2ccc(Br)cc2)cc(OCC)c1OCC", "MEASUREMENT UNIT": "µM", "IC50": 43}
